Attribution: ChEMBL document CHEMBL4177636

- procedureDetails: Selectivity index, ratio of prodrug IC50 under normoxic condition to prodrug IC50 under hypoxic condition
- Format: functional
Assignment: determine reported Ratio IC50 for the given compounds.
Numbers only.

• C=C1C[C@H]2C=Nc3cc(OCCCCCOc4cc5c(cc4OC)C(=O)N4CC(=C)C[C@H]4C(O)N5C(=O)OCc4cnc([N+](=O)[O-])n4C)c(OC)cc3C(=O)N2C1 (some centres not stated) = 1.3
• C=C1C[C@H]2C(O)N(C(=O)OCc3cnc([N+](=O)[O-])n3C)c3cc(OC)c(OC)cc3C(=O)N2C1 (some centres not stated) = 5.6
• C=C1C[C@H]2C=Nc3cc(OC)c(OC)cc3C(=O)N2C1 = 2
• COc1cc2c(cc1OC)C(=O)N1C=C(c3ccc4ncccc4c3)C[C@H]1C=N2 = 1.4
• C=C1C[C@H]2C=Nc3cc(OCCCCCOc4cc5c(cc4OC)C(=O)N4CC(=C)C[C@H]4C=N5)c(OC)cc3C(=O)N2C1 = 1.5

Here are 2 compounds. What values of Ratio IC50 were reported for them?
1. Cn1c(COP(=O)(NCCBr)NCCBr)cnc1[N+](=O)[O-] [EVOFOSFAMIDE]
2. COc1cc2c(cc1OC)N(C(=O)OCc1cnc([N+](=O)[O-])n1C)C(O)[C@@H]1CC(c3ccc4ncccc4c3)=CN1C2=O (some centres not stated)

1. 715
2. 13.6
